# Test system: LOX IMVI melanoma
# Method: NCI-60 one-dose screen, 48 h
# Condition label: 10 µM unless noted
# Experimental: Growth inhibition of the LOX IMVI human tumor cell line is measured as a screen for anti-cancer activity. Cells are grown in 96 well plates and exposed to the test compound for 48 hours. Compounds are tested at a single concentration, which is 10^-5 M for most compounds. The reported endpoint is percent growth (GI% or GIPRCNT), where numbers from 0 - 100% represent growth inhibition, and numbers from -100% - 0 represent cell death. For example, a value of 40 represents 60% growth inhibition. […]
This is part of a sample that, as a whole, favours compounds with a hit. Of some 83,000 tested, about 20% had one in any assay. Activity calls are given as the source filed them. The calls were made as follows: active = growth percent below 10; inactive = the rest.
Log the outcome using a class from active, inactive

• CNC(=O)Nc1ccc(-c2ccc3ncnc(Nc4cccc(Cl)c4)c3c2)cc1 = inactive
• CCOC(=O)CC1CSC(N/N=C/c2ccc(F)c(Br)c2)=N1 (centres undefined) = inactive
• CC(C)(Sc1cc(C(C)(C)C)c(O)c(C(C)(C)C)c1)Sc1cc(C(C)(C)C)c(OC(=O)CCC(=O)O)c(C(C)(C)C)c1 = inactive
• Nc1ncnc2c1N=C(c1ccc(Cl)cc1)CC(c1cccc(Nc3ccnc4cc(Cl)ccc34)c1)N2 (centres undefined) = inactive
• CCN(CC)C(=O)CC1=C(C)/C(=C/c2[nH]c(-c3ccc[nH]3)cc2OC)N=C1C = active
• C=C(C)[C@@H]1CC[C@]2(C(=O)Nc3ccccn3)CC[C@]3(C)[C@H](CC[C@@H]4[C@@]5(C)CCCNC(C)(C)[C@@H]5CC[C@]43C)[C@@H]12 = inactive
• O=C(Nc1nc(Cl)nc(Nc2ccc(N3CCOCC3=O)cc2)n1)c1ccc(Cl)s1 = inactive
• O=C(Oc1ccc2c(c1)sc1nc(-c3ccccc3)[nH]c(=O)c12)C(F)(F)F = inactive
• CC1(C)CC(=O)C2=C(C1)C(c1ccc(Cl)cc1)n1ncc(C#N)c1N2 (centres undefined) = inactive
• c1ccc(-c2ccc3c(c2)C2(CCNCC2)CN3)cc1 = inactive

Exam item: Record request — test call for `CCN(CC)CCOc1ccc2c(-c3ccccc3)c(-c3ccc(OC)cc3)c(=O)oc2c1`
Marked response: inactive

Exam item: # iterate: `COc1cc(-c2cc(-c3ccc(Nc4nc(Nc5ccc(Cl)cc5)nc(Nc5ccc(Cl)cc5)n4)cc3)no2)cc(OC)c1OC`
Marked response: inactive

Exam item: # iterate: COc1ccc2c(c1)C(C)Cc1c(ncnc1-n1cnc3cc(C)ccc31)N2C (centres undefined)
Marked response: inactive

Exam item: # iterate: `O=C1/C(=C/c2c[nH]c(=O)[nH]c2=O)SC(=S)N1Cc1ccccc1`
Marked response: inactive

Exam item: # iterate: `Cn1c(=O)[nH]c(=O)c2nc3c(nc21)-c1ccccc1C3=O`
Marked response: inactive

Exam item: # iterate: `CCCCCc1ccc(S(=O)(=O)Nc2ccc3nc(N)oc3c2)cc1`
Marked response: inactive

Exam item: # iterate: `COCCn1cc(-c2csc(-c3c[nH]c4ccccc34)n2)c2cccnc21`
Marked response: inactive

Exam item: # iterate: `CCOC(=O)NCCCC(=O)NCCc1ccccc1`
Marked response: inactive

Exam item: # iterate: `Cc1nc(N/N=C/c2cn(-c3ccccc3)nc2-c2cc3ccccc3oc2=O)sc1N=Nc1ccccc1`
Marked response: inactive
